Origin of measurements: patent US5175290A

# Tested on: basal heart rate and basal blood pressure
# assay summary: Cardiovascular effects (basal heart rate and basal blood pressure) in guinea pigs
# Assay type: in vivo, guinea pig
# test parameters: i.v., at 2 × histamine-reversal ED50, * = not significant
Strictly below 80% in Basal blood pressure: criterion met. Otherwise: criterion not met.

compound	system	label value
CCCn1c(=O)[nH]c(=O)c2[nH]cnc21	basal heart rate and basal blood pressure	criterion met
CCCn1c(=O)c2[nH]c([C@H]3CC[C@@H](O)C3)nc2n(CCC)c1=O (relative stereo) [cis]	basal heart rate and basal blood pressure	criterion not met
CCCn1c(=O)c2[nH]c([C@H]3CC[C@H](O)C3)nc2n(CCC)c1=O (relative stereo) [trans]	basal heart rate and basal blood pressure	criterion not met
Cn1c(=O)c2[nH]cnc2n(C)c1=O	basal heart rate and basal blood pressure	criterion met
CCCn1c(=O)c2[nH]c(C3CCC(O)C3)nc2n(CCC)c1=O (mixture of isomers) [cis/trans]	basal heart rate and basal blood pressure	criterion met

----------
# Test system: pentobarbital-induced heart failure
# assay summary: Pentobarbital-induced heart failure in rats
# Type: in vivo, rat (Sprague-Dawley)
# test parameters: Rattus norvegicus, iv; rats, i.v.; dose for 40% recovery in dP/dt; extrapolated or estimated by probit; read-out: RD40, dP/dt
Readings of log10 ED40 for the listed compounds
result type: log10 ED40 (log10 of the value in mg/kg)

compound	result type	experimental result
CCCn1c(=O)c2[nH]c([C@H]3CC[C@@H](O)C3)nc2n(CCC)c1=O (relative stereo) [cis]	log10 ED40	1.25
CCCn1c(=O)[nH]c(=O)c2[nH]cnc21 [Enprofylline, 3-propylxanthine]	log10 ED40	1.68
CCCn1c(=O)c2[nH]c(C3CCC(O)C3)nc2n(CCC)c1=O (mixture of isomers) [cis/trans]	log10 ED40	1.28
Nc1cc(-c2ccncc2)c[nH]c1=O [Amrinone]	log10 ED40	0.61
CCCn1c(=O)c2[nH]c([C@H]3CC[C@H](O)C3)nc2n(CCC)c1=O (relative stereo) [trans]	log10 ED40	0.89

----------
# Tested on: basal heart rate and basal blood pressure
# assay summary: Cardiovascular effects (basal heart rate and basal blood pressure) in guinea pigs
# Assay type: in vivo, guinea pig
# test parameters: i.v., at 2 × histamine-reversal ED50, * = not significant

molecule	system	unit of measure	Basal heart rate
CCCn1c(=O)[nH]c(=O)c2[nH]cnc21 [Enprofylline, 3-propylxanthine]	basal heart rate and basal blood pressure	%	120
Cn1c(=O)c2[nH]cnc2n(C)c1=O [Theophylline]	basal heart rate and basal blood pressure	%	132
CCCn1c(=O)c2[nH]c(C3CCC(O)C3)nc2n(CCC)c1=O (mixture of isomers) [cis/trans]	basal heart rate and basal blood pressure	%	86
CCCn1c(=O)c2[nH]c([C@H]3CC[C@@H](O)C3)nc2n(CCC)c1=O (relative stereo) [cis]	basal heart rate and basal blood pressure	%	106
CCCn1c(=O)c2[nH]c([C@H]3CC[C@H](O)C3)nc2n(CCC)c1=O (relative stereo) [trans]	basal heart rate and basal blood pressure	%	107

----------
# Test system: histamine-induced bronchoconstriction
# assay summary: Reversal of histamine-induced bronchoconstriction in the anesthetized guinea pig
# Format: in vivo
# test parameters: Cavia porcellus, iv; guinea pigs; dose required to reverse the histamine response by 50%
Overview of reported ED50 across a group of compounds:
result type: ED50 (mg/kg)

compound	result type	unit of measure	experimental result
Cn1c(=O)c2[nH]cnc2n(C)c1=O	ED50	mg/kg	35.1
CCCn1c(=O)c2[nH]c([C@H]3CC[C@H](O)C3)nc2n(CCC)c1=O (relative stereo) [trans]	ED50	mg/kg	11.6
CCCn1c(=O)[nH]c(=O)c2[nH]cnc21	ED50	mg/kg	13.1
CCCn1c(=O)c2[nH]c(C3CCC(O)C3)nc2n(CCC)c1=O (mixture of isomers) [cis/trans]	ED50	mg/kg	20.3
CCCn1c(=O)c2[nH]c([C@H]3CC[C@@H](O)C3)nc2n(CCC)c1=O (relative stereo) [cis]	ED50	mg/kg	14.1
